System: E. coli TESEC Mtb Asd
test-summary: growth (OD600 after 10 h); higher = more growth (less inhibition)
condition-description: arabinose induction (level): High; compound 0.1 mM; raw OD600 reference: median of DMSO wells 0.331, cell-free background 0.041
Where a name gives a salt, the structure may show the parent alone.

{"columns": ["compound", "target-system", "growth"],
 "data": [
  ["CCCOc1ccc(C(=O)OCCN(CC)CC)cc1N [Proparacaine hydrochloride]", "E. coli TESEC Mtb Asd", 0.46],
  ["CN1CCc2cccc3c2[C@H]1Cc1ccc(O)c(O)c1-3 [R(-) Apomorphine hydrochloride hemihydrate]", "E. coli TESEC Mtb Asd", 0.152],
  ["c1ccc2c(c1)CCCC2C1=NCCN1 (stereo unspecified) [Tetrahydrozoline hydrochloride]", "E. coli TESEC Mtb Asd", 0.435],
  ["O=c1[nH]c(=O)n([C@H]2C[C@H](O)[C@@H](CO)O2)cc1F", "E. coli TESEC Mtb Asd", 0.088],
  ["C[C@]12C=CC(=O)C=C1CC[C@H]1[C@@H]3C[C@@H](O)[C@](O)(C(=O)CO)[C@@]3(C)C[C@H](O)[C@@]12F", "E. coli TESEC Mtb Asd", 0.222],
  ["CC(=O)[C@@]12O[C@](C)(c3ccccc3)O[C@@H]1C[C@H]1[C@@H]3CCC4=CC(=O)CC[C@]4(C)[C@H]3CC[C@@]12C [Algestone acetophenide]", "E. coli TESEC Mtb Asd", 0.231],
  ["OC(CCN1CCCCC1)(c1ccccc1)C1CC2C=CC1C2 (stereo unspecified) [Biperiden hydrochloride]", "E. coli TESEC Mtb Asd", 0.194],
  ["Cn1c(=O)c2c(ncn2CC2OCCO2)n(C)c1=O", "E. coli TESEC Mtb Asd", 0.476],
  ["CC(=O)N1CCN(c2ccc(OCC3COC(Cn4ccnc4)(c4ccc(Cl)cc4Cl)O3)cc2)CC1 (stereo unspecified)", "E. coli TESEC Mtb Asd", 0.0601],
  ["O=C(CCNNC(=O)c1ccncc1)NCc1ccccc1 [Nialamide]", "E. coli TESEC Mtb Asd", 0.237],
  ["CC(=O)OCC(=O)[C@@]1(OC(C)=O)[C@@H](C)C[C@H]2[C@@H]3C[C@H](F)C4=CC(=O)C=C[C@]4(C)[C@@]3(F)[C@@H](O)C[C@@]21C [Diflorasone Diacetate]", "E. coli TESEC Mtb Asd", 0.263],
  ["N[C@@H](C(=O)N[C@@H]1C(=O)N2C(C(=O)O)=C(Cl)CS[C@H]12)c1ccccc1 [Cefaclor hydrate]", "E. coli TESEC Mtb Asd", 0.333],
  ["NC[C@@H]1O[C@@H](O[C@H]2[C@H](O)[C@@H](O[C@H]3O[C@H](CO)[C@@H](O)[C@H](N)[C@H]3O)[C@H](N)C[C@@H]2N)[C@@H](O)[C@H](O)[C@H]1O [Kanamycin A sulfate]", "E. coli TESEC Mtb Asd", 0.245],
  ["NS(=O)(=O)c1cc2c(cc1Cl)NC(C(Cl)Cl)NS2(=O)=O (stereo unspecified) [Trichlormethiazide]", "E. coli TESEC Mtb Asd", 0.331],
  ["OCCN1CCN(CCCN2c3ccccc3Sc3ccc(C(F)(F)F)cc32)CC1 [Fluphenazine dihydrochloride]", "E. coli TESEC Mtb Asd", 0.0496],
  ["CN(C)CCC=C1c2ccccc2CCc2ccccc21 [Amitryptiline hydrochloride]", "E. coli TESEC Mtb Asd", 0.146],
  ["Nc1nc2[nH]cc(CCc3ccc(C(=O)N[C@@H](CCC(=O)O)C(=O)O)cc3)c2c(=O)[nH]1 [Pemetrexed disodium]", "E. coli TESEC Mtb Asd", 0.281],
  ["CCCCCCCN(CC)CCCC(O)c1ccc(NS(C)(=O)=O)cc1 (stereo unspecified) [Ibutilide fumarate]", "E. coli TESEC Mtb Asd", 0.271],
  ["Nc1ncnc2c1ncn2[C@@H]1O[C@H](CO)[C@@H](O)[C@@H]1O", "E. coli TESEC Mtb Asd", 0.36],
  ["CCC1=C(C)CN(C(=O)NCCc2ccc(S(=O)(=O)NC(=O)N[C@H]3CC[C@H](C)CC3)cc2)C1=O [Glimepiride]", "E. coli TESEC Mtb Asd", 0.338],
  ["CN(C)CCOC(C)(c1ccccc1)c1ccccn1 (stereo unspecified) [Doxylamine succinate]", "E. coli TESEC Mtb Asd", 0.301],
  ["C=CCc1ccccc1OCC(O)CNC(C)C (stereo unspecified) [Alprenolol hydrochloride]", "E. coli TESEC Mtb Asd", 0.322],
  ["CN(C)CCC=C1c2ccccc2COc2ccccc21 [Doxepin hydrochloride]", "E. coli TESEC Mtb Asd", 0.186],
  ["CO/N=C(\\C(=O)N[C@@H]1C(=O)N2C(C(=O)O)=C(COC(N)=O)CS[C@H]12)c1ccco1 [Cefuroxime sodium salt]", "E. coli TESEC Mtb Asd", 0.213],
  ["Nc1ccc(S(=O)(=O)Nc2nccs2)cc1", "E. coli TESEC Mtb Asd", 0.377],
  ["CC(=O)O[C@]1(C(C)=O)CC[C@H]2[C@@H]3C=C(Cl)C4=CC(=O)[C@@H]5C[C@@H]5[C@]4(C)[C@H]3CC[C@@]21C [Cyproterone acetate]", "E. coli TESEC Mtb Asd", 0.111],
  ["OCCN1C[C@H](O)[C@@H](O)[C@H](O)[C@H]1CO", "E. coli TESEC Mtb Asd", 0.358],
  ["O=C(NCC1CCCCN1)c1cc(OCC(F)(F)F)ccc1OCC(F)(F)F (stereo unspecified) [Flecainide acetate]", "E. coli TESEC Mtb Asd", 0.263],
  ["Cn1cnc2c1c(=O)[nH]c(=O)n2C", "E. coli TESEC Mtb Asd", 0.483],
  ["CCN(CC)CCOC(=O)c1ccc(N)cc1 [Procaine hydrochloride]", "E. coli TESEC Mtb Asd", 0.339],
  ["OC(CCN1CCCCC1)(c1ccccc1)c1ccccc1 [Pridinol methanesulfonate salt]", "E. coli TESEC Mtb Asd", 0.468]
]}
